The reported measurements were obtained from patent US8952024B2.

- Test system: galium (catchweed bedstraw, Galium aparine)
- TEST SUMMARY: Test B pre-/postemergence plant response
- Format: in vivo
- ASSAY SETUP: 250 g ai/ha, Preemergence, 0 to 100 scale
MEASUREMENT TYPE: Plant response rating, Galium

Would you please look over these solved cases?
>>> result("Cc1ccc(C)c(-n2c(-c3ccccc3)ncc(C(=O)C3=C(O)CCCC3=O)c2=O)c1 [Compound 29]")
100
>>> result("Cc1ccc(-n2c(-c3cccc(Cl)c3)ncc(C(=O)C3=C(O)CCCC3=O)c2=O)cc1 [Compound 39]")
85
>>> result("O=C1CCCC(O)=C1C(=O)c1cnc(-c2ccccc2)n(-c2ccccc2Br)c1=O [Compound 37]")
100
>>> result("CCCCc1ncc(C(=O)C2=C(O)CCCC2=O)c(=O)n1-c1ccccc1C [Compound 62]")
0
>>> result("Cc1ccc(Cl)cc1-n1c(-c2ccccc2)ncc(C(=O)C2=C(O)CCCC2=O)c1=O [Compound 52]")
95

Could you now consider this next molecule?
Entry Cc1cccc(-n2c(-c3ccccc3)ncc(C(=O)C3=C(O)CCCC3=O)c2=O)c1C [Compound 27] , system galium (catchweed bedstraw, Galium aparine): what Plant response rating, Galium was measured? 95
